Data provenance: patent US20090270450A1

experimentalTarget: His-tagged kinase domain of CSF-1R (amino acids 568-912) (Homo sapiens, UniProt P07333)
Construct: The His-tagged kinase domain of CSF-1R (i.e., amino acids 568-912, GeneBank ID NM_005211); His; made in house; host or cells: baculovirus infected SF+Express insect cells
testDescription: Assay 1: CSF-1R in vitro AlphaScreen assay
Type: biochemical
conditionDetails: phosphorylation of biotinylated pEY substrate; 0.57 nM CSF-1R, 90 μM ATP
experimentalReadout: log10 of IC50 (log10 of the value in nM)
Note the log scale: values are log10 of IC50 expressed in nM.

// worked examples, log10 of IC50 included
# compound, log10 of IC50
data = [
    ("COc1cc2ncc(C(N)=O)c(Nc3cccc(Cl)c3Cl)c2cc1CCCO [Example 19]", 0.90),
    ("COc1cc2ncc(C(N)=O)c(Nc3ccc(F)cc3F)c2cc1CCCN(C)C [Example 9]", 0.48),
    ("CCOc1cc2ncc(C(N)=O)c(Nc3ccc(F)cc3F)c2cc1C1CCN(C(C)C)CC1 [Example 46]", 1.26),
    ("COc1cc2ncc(C(N)=O)c(Nc3ccc(F)cc3F)c2cc1C1CCN(C(C)=O)CC1 [Example 55]", 1.18),
    ("CCc1ccc(Nc2c(C(N)=O)cnc3cc(OC)c(CCCO)cc23)cc1 [Example 20]", 1.58),
]

Turning now to a further compound:
// query log10 of IC50 value for entry COc1cc2c(Nc3ccc(Cl)c(Cl)c3)c(C(N)=O)cnc2cc1C1CC1 [Example 29] 1.76

====

experimentalTarget: His-tagged kinase domain of CSF-1R (amino acids 568-912) (Homo sapiens)
Construct: The His-tagged kinase domain of CSF-1R (i.e., amino acids 568-912, GeneBank ID NM_005211); His; made in house; host or cells: baculovirus infected SF+Express insect cells
Sequence (P07333 568-912): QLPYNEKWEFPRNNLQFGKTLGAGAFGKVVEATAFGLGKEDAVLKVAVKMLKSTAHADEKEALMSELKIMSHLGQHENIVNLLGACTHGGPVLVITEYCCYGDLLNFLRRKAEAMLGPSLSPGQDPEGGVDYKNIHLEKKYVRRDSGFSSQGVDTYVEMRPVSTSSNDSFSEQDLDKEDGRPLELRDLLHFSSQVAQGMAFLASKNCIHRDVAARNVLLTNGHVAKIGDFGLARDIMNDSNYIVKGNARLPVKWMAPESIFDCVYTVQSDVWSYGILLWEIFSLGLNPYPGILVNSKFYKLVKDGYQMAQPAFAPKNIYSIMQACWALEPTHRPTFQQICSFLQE
testDescription: Assay 1: CSF-1R in vitro AlphaScreen assay
Type: biochemical
conditionDetails: phosphorylation of biotinylated pEY substrate; 0.57 nM CSF-1R, 90 μM ATP
pIC50: −log10 of the molar value.
# if value of pIC50 reaches 8, tag Met; if it stays below, tag Not met

Worked examples follow.
# smilesRecord, category
data = [
    ("CCOc1cc2ncc(C(N)=O)c(Nc3ccc(F)cc3F)c2cc1C1=CCN(C(=O)OC(C)(C)C)CC1", "Not met"),
    ("CCOc1cc2ncc(C(N)=O)c(Nc3ccc(F)cc3F)c2cc1-c1cccnc1", "Not met"),
    ("CCOc1cc2ncc(C(N)=O)c(Nc3ccc(F)cc3F)c2cc1C1CCN(C)CC1", "Met"),
    ("CCOc1cc2ncc(C(N)=O)c(Nc3cccc(Cl)c3Cl)c2cc1CCCO", "Not met"),
    ("COc1cc2ncc(C(N)=O)c(Nc3ccc(Cl)c(Cl)c3)c2cc1CCCNC1CC1", "Met"),
    ("CCOc1cc2ncc(C(N)=O)c(Nc3ccc(CC)cc3)c2cc1CCCO", "Not met"),
]

Turning now to a further compound:
Check the entry `COc1cc2ncc(C(N)=O)c(Nc3cccc(Cl)c3F)c2cc1CCCO` : does pIC50 equal or exceed 8? Met

====

experimentalTarget: His-tagged kinase domain of CSF-1R (amino acids 568-912) (Homo sapiens)
Construct: The His-tagged kinase domain of CSF-1R (i.e., amino acids 568-912, GeneBank ID NM_005211); His; made in house; host or cells: baculovirus infected SF+Express insect cells
testDescription: Assay 2: CSF1R in-vitro AlphaScreen assay
Type: biochemical
conditionDetails: phosphorylation of biotinylated pEY substrate; 0.46 nM CSF-1R, 12 mM ATP mix
Where a name gives a salt, the structure may show the parent alone.
experimentalReadout: IC50

# compound, recordedResult
records = [
    ("COc1cc2ncc(C(N)=O)c(Nc3ccc(C)cc3F)c2cc1C1CCN(CCO)CC1 [Example 60, hydrochloride]", "4 nM"),
    ("CCOc1cc2ncc(C(N)=O)c(Nc3ccc(C)cc3F)c2cc1C1CCN(C(=O)CCOC)CC1 [Example 57]", "71 nM"),
]

Give the measured IC50 of COc1cc2ncc(C(N)=O)c(Nc3ccc(F)cc3F)c2cc1C1CCN(C(C)C)CC1 [Example 53] . 32 nM

Name the recorded IC50 for CCOc1cc2ncc(C(N)=O)c(Nc3ccc(F)cc3F)c2cc1C1CCN(C(C)C)CC1 [Example 46] . 22 nM

====

experimentalTarget: His-tagged kinase domain of CSF-1R (amino acids 568-912) (Homo sapiens, UniProt P07333)
Construct: The His-tagged kinase domain of CSF-1R (i.e., amino acids 568-912, GeneBank ID NM_005211); His; made in house; host or cells: baculovirus infected SF+Express insect cells
testDescription: Assay 1: CSF-1R in vitro AlphaScreen assay
Format: biochemical
conditionDetails: phosphorylation of biotinylated pEY substrate; 0.57 nM CSF-1R, 90 μM ATP
pIC50: −log10 of the molar value.
Use 8 as the dividing line for pIC50, with the line itself on the 1 (yes) side and lower values as 0 (no).

Worked examples, 5 molecules total:
# smilesRecord, category
data = [
    ("CCOc1cc2ncc(C(N)=O)c(Nc3ccc(F)cc3F)c2cc1C1=CCNCC1", "1 (yes)"),
    ("COc1cc2ncc(C(N)=O)c(Nc3ccc(Cl)c(Cl)c3)c2cc1CCCO", "1 (yes)"),
    ("CCOc1cc2ncc(C(N)=O)c(Nc3ccc(F)cc3F)c2cc1-c1cncnc1", "0 (no)"),
    ("CCOc1cc2ncc(C(N)=O)c(Nc3cc(C)ccc3F)c2cc1C1CCN(C(C)C)CC1", "1 (yes)"),
    ("COc1cc2ncc(C(N)=O)c(Nc3ccc(F)cc3F)c2cc1CCCN1CCCCC1", "0 (no)"),
]

Record `COc1cc2ncc(C(N)=O)c(Nc3ccc(Cl)c(Cl)c3)c2cc1C1CC1` ; criterion: pIC50 no lower than 8. Met? 0 (no)

Could you tell me if the measured pIC50 of `CCOc1cc2ncc(C(N)=O)c(Nc3ccc(F)cc3F)c2cc1-c1ccc[nH]1` reaches 8 or more? 0 (no)

Entry `COc1cc2ncc(C(N)=O)c(Nc3ccc(F)cc3F)c2cc1C1CC1` : is its pIC50 no less than 8? 0 (no)

====

experimentalTarget: His-tagged kinase domain of CSF-1R (amino acids 568-912) (Homo sapiens)
Construct: The His-tagged kinase domain of CSF-1R (i.e., amino acids 568-912, GeneBank ID NM_005211); His; made in house; host or cells: baculovirus infected SF+Express insect cells
Sequence (P07333 568-912): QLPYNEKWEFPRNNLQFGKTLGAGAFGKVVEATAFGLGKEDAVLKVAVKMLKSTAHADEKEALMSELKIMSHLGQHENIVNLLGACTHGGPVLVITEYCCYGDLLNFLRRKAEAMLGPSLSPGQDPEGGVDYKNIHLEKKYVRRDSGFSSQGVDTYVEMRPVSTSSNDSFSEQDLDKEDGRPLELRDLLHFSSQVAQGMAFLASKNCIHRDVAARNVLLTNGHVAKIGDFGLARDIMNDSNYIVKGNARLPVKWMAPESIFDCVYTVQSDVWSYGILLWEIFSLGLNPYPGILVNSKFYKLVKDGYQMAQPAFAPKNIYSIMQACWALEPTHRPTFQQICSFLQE
testDescription: Assay 1: CSF-1R in vitro AlphaScreen assay
Assay type: biochemical
conditionDetails: phosphorylation of biotinylated pEY substrate; 0.57 nM CSF-1R, 90 μM ATP
Protocol: Assay 1: CSF-1R in Vitro AlphaScreen Assay Activity of purified CSF-1R was determined in vitro using an Amplified Luminescent Proximity Homogeneous Assay (ALPHA)(Perkin Elmer), which measures phosphorylation of the CSF-1R substrate, biotinylated poly-glutamine-tyrosine peptide (PEY-HTRF CisBio 61GT0BLD), as described below. […] The phosphorylation of the CSF-1R substrate in the presence and absence of the compound of interest was determined. […]
experimentalReadout: IC50 (nM)
Please state the figure in nM; there is no need to write the unit.

Sample answers from the record:
# smilesRecord, IC50 [nM]
data = [
    ("COc1cc2ncc(C(N)=O)c(Nc3ccc(F)c(Cl)c3)c2cc1CCCO", 9),
    ("CCOc1cc2ncc(C(N)=O)c(Nc3ccc(F)c(Cl)c3)c2cc1CCCO", 7),
    ("COc1cc2ncc(C(N)=O)c(Nc3ccc(C)cc3F)c2cc1C1CCN(C)CC1", 7),
    ("COc1cc2ncc(C(N)=O)c(Nc3cccc(Cl)c3F)c2cc1C1CCN(C)CC1", 6),
    ("CCOc1cc2ncc(C(N)=O)c(Nc3ccc(F)cc3F)c2cc1-c1cn[nH]c1", 28),
]

Which IC50 is reported for this compound? `COc1cc2ncc(C(N)=O)c(Nc3ccc(Cl)c(Cl)c3)c2cc1CCCN` 2

IC50 for `COc1cc2ncc(C(N)=O)c(Nc3ccc(Cl)c(Cl)c3)c2cc1CCCN1CCCCC1` ? 4

Could you tell me which IC50 is on file for `CCOc1cc2ncc(C(N)=O)c(Nc3cccc(Cl)c3F)c2cc1CCCO` ? 5

Please give the measured IC50 for this compound: `CCOc1cc2ncc(C(N)=O)c(Nc3ccc(F)cc3F)c2cc1-c1ccncc1` 61
